Reported IC50 values for a set of compounds
Test system: HCT116-MTAP wild-type (+/+)-cell strain
protocol.notes: Tumor cell proliferation inhibition assay (CellTiter-Glo), HCT116-MTAP wild-type (+/+)
Format: cell-based
condition.summary: Homo sapiens, 120 h, HCT116-MTAP wild-type (+/+) cells, 5-day treatment, IC50 score, read-out: Tumor cell 5-day relative growth inhibition (HCT116-MTAP+/+) (nM), score

1) Cc1[nH]nc2c(=O)n(-c3cccnc3)c3nc(C(F)(F)F)ccc3c12: ≥ 2000 nM
2) Cc1c2c(nn1C)c(=O)n(-c1cccnc1)c1nc(C(F)(F)F)ccc21: 500 to 2000 nM
3) Cn1cc2c(n1)c(=O)n(-c1cccnc1C(F)(F)F)c1cc(Cl)c(F)cc21 (single isomer, unassigned) [Compound B389]: ≥ 2000 nM
4) Cn1cc2c(n1)c(=O)n(-c1cccc3[nH]ncc13)c1nc(C(F)(F)F)c(F)cc21: ≥ 2000 nM

Query block: I would be grateful if you could share the reported IC50 for Cn1cc2c(n1)c(=O)n(-c1cccc3[nH]ncc13)c1cc(Cl)cnc21 .
Result block: ≥ 2000 nM
